The reported measurements were obtained from patent US11566022B2.

Items are presented alongside their recorded remaining activity at up to 25 µM.
- TEST TARGET: HiBit-WIZ fusion protein (Homo sapiens, UniProt O95785+Q96SW2)
- Sequence (O95785 whole entry, the tested form may be a part): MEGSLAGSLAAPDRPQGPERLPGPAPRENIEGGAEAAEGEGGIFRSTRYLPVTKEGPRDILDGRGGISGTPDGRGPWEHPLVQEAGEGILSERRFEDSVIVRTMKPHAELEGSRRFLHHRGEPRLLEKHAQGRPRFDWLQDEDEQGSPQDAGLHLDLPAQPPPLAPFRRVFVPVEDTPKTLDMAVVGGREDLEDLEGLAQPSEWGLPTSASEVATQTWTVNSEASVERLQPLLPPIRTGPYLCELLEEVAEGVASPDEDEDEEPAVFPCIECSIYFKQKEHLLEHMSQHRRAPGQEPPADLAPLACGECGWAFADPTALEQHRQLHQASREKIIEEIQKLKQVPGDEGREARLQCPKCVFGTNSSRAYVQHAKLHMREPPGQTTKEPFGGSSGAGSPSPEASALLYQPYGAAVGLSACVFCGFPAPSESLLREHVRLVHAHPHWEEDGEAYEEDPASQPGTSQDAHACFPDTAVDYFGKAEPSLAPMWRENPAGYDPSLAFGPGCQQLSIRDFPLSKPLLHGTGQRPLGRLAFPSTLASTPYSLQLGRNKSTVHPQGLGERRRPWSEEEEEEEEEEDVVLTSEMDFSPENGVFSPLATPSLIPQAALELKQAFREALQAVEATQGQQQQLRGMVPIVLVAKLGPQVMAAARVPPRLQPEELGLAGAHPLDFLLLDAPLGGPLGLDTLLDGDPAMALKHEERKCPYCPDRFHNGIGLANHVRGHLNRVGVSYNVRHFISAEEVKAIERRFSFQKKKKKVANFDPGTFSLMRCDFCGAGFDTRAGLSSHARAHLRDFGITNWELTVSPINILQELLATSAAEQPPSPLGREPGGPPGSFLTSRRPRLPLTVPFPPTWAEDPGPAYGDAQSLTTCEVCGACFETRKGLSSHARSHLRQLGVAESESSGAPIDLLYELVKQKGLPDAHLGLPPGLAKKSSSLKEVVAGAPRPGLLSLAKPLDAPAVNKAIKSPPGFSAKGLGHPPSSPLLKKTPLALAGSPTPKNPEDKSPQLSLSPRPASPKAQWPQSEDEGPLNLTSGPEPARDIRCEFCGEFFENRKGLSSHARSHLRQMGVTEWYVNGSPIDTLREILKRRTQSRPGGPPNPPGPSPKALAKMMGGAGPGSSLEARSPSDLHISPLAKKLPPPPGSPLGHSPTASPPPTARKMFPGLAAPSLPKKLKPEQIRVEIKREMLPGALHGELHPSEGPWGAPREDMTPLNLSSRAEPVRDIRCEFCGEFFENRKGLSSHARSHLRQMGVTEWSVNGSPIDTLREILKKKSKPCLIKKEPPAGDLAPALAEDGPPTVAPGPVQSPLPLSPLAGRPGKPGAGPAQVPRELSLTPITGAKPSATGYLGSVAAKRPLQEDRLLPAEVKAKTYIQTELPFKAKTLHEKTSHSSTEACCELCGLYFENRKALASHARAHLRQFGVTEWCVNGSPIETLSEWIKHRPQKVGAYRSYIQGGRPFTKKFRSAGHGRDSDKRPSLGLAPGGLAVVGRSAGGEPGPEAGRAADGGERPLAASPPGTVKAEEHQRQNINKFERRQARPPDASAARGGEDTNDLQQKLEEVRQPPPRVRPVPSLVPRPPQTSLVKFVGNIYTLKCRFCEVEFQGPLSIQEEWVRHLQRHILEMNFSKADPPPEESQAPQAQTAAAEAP
- Sequence (Q96SW2 whole entry, the tested form may be a part): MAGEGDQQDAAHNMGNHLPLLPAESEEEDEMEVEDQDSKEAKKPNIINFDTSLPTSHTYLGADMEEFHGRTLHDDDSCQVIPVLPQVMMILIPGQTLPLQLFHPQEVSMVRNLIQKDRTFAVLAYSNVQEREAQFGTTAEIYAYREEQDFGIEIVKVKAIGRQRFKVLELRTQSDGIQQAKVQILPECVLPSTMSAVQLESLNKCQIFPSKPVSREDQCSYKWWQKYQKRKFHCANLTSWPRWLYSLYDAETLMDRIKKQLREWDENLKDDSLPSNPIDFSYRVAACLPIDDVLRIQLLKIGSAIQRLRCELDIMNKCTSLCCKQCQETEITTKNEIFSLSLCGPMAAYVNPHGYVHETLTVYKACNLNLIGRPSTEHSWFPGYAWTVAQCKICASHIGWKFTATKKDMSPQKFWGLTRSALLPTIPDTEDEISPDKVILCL
- Sequence (Q16531 whole entry partner, the tested form may be a part): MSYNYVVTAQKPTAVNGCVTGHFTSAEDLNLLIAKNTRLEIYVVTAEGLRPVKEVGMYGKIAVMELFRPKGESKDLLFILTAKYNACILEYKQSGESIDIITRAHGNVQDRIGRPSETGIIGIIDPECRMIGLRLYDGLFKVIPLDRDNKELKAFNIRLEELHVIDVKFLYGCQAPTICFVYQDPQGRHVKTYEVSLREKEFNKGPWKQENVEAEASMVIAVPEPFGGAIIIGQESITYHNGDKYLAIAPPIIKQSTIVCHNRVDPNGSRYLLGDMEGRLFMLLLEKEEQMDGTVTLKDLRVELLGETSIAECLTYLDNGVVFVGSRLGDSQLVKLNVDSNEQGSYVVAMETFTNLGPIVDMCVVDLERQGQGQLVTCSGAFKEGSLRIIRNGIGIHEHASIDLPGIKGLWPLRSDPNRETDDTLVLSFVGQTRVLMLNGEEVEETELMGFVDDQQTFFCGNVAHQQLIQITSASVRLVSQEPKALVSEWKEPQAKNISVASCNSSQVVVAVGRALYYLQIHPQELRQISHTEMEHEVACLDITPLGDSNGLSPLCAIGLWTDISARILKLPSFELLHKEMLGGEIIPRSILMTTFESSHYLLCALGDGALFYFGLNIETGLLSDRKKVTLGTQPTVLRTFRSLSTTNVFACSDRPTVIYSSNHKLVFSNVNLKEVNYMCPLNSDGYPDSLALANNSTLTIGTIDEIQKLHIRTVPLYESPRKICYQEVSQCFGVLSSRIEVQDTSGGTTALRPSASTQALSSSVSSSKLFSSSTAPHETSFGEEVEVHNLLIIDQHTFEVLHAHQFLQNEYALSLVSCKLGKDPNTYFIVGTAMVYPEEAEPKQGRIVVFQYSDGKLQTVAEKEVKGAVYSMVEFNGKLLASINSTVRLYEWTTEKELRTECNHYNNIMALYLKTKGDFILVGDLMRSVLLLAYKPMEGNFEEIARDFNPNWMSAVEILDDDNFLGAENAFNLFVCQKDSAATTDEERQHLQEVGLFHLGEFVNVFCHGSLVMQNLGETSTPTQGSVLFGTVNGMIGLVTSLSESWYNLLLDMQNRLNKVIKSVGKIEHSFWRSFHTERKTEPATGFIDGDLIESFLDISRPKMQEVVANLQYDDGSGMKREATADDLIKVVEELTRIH
- PROTOCOL DETAILS: Quantification of WIZ protein levels in HiBit tag fusion protein assay (WIZ HiBit assay in 293T cells)
- Type: cell-based
- CONDITION DETAILS: HEK-293T, DMSO-normalized, curve-fitted percentage of WIZ-HiBit remaining at 25 uM; 293T cells; read-out: WIZ Amax
EXPERIMENTAL ENDPOINT: remaining activity at up to 25 µM (%)

- O=C1CCC(N2Cc3cc(OC[C@H]4CCCCN4Cc4ccccc4N4CCNCC4)ccc3C2=O)C(=O)N1 (some centres unmarked): 19.9
- CCN(CC)c1ccc(CN2CCCC[C@H]2COc2ccc3c(c2)CN(C2CCC(=O)NC2=O)C3=O)cn1 (some centres unmarked) [Compound I-50as]: 15.7
- O=C1CCC(N2Cc3cc(OC[C@@H]4CCCCN4CC4CCN(Cc5ccccc5)CC4)ccc3C2=O)C(=O)N1 (some centres unmarked) [Compound I-50aj]: 1
- CCCCCc1ccc(C(=O)N2CCCC[C@H]2COc2ccc3c(c2)CN(C2CCC(=O)NC2=O)C3=O)cc1 (some centres unmarked) [Compound I-72t]: 30.1
- O=C1CCC(N2Cc3cc(OC[C@H]4CCCCN4CCOCc4ccccc4)ccc3C2=O)C(=O)N1 (some centres unmarked): 13.9
- COc1cc2[nH]nc(CN3CCCC[C@H]3COc3ccc4c(c3)CN(C3CCC(=O)NC3=O)C4=O)c2cc1OCc1ccccc1 (some centres unmarked) [Compound I-50ae]: 46.9
- CCN(CC)CC(=O)N1CCCC[C@H]1COc1ccc2c(c1)CN(C1CCC(=O)NC1=O)C2=O (some centres unmarked) [Compound I-72cp]: 87.9
- O=C(O)Cn1cnc(CN2CCCC[C@@H]2COc2ccc3c(c2)CN(C2CCC(=O)NC2=O)C3=O)c1 (some centres unmarked) [Compound I-50da]: 34.9
- Cc1nc(-c2cccc(CN3CCCC[C@@H]3COc3ccc4c(c3)CN(C3CCC(=O)NC3=O)C4=O)c2)no1 (some centres unmarked) [Compound I-50du]: 21.6
- O=C1CCC(N2Cc3cc(OC[C@H]4CCCCN4Cc4cccn5ccnc45)ccc3C2=O)C(=O)N1 (some centres unmarked) [Compound I-50ca]: 23.7
- CCc1noc(CC)c1C(=O)N1CCCC[C@H]1COc1ccc2c(c1)CN(C1CCC(=O)NC1=O)C2=O (some centres unmarked) [Compound I-72s]: 21.8
- Cc1noc(-c2ccc(C(=O)N3CCCC[C@H]3COc3ccc4c(c3)CN(C3CCC(=O)NC3=O)C4=O)cc2)n1 (some centres unmarked) [Compound I-72ar]: 28.2
- O=C1CCC(N2Cc3cc(OC[C@H]4CCCCN4Cc4ccc(F)cc4)ccc3C2=O)C(=O)N1 (some centres unmarked): 0.64
- O=C1CCC(N2Cc3cc(OC[C@@H]4CCCCN4Cc4ccnc(N5CCOCC5)c4)ccc3C2=O)C(=O)N1 (some centres unmarked) [Compound I-50bn]: 23.8
